- Read-out: Caspase-3 (Homo sapiens)
- protocolText: LTEA_HepaRG_CASP3: Life Technologies and Expression Analysis (LTEA) Assay for cysteine-aspartic acid protease (CASP3) using HepaRG (AID 2283477)
- particulars: mRNA level, 48 h; actives raise or lower the signal
The source made the active and inactive calls. The calls were made as follows: active = hit-call score of the fitted dose curve at least 0.9, where 1 is the maximum; inactive = score below 0.9.
Classes used: 1 (yes) = active, 0 (no) = inactive

[
  {
    "compound": "c1ccc2[nH]c(-c3cscn3)nc2c1",
    "qualitativeLabel": "0 (no)"
  },
  {
    "compound": "CCN(Cc1c(F)cccc1Cl)c1c([N+](=O)[O-])cc(C(F)(F)F)cc1[N+](=O)[O-]",
    "qualitativeLabel": "0 (no)"
  },
  {
    "compound": "CC(=O)S[C@@H]1CC2=CC(=O)CC[C@]2(C)[C@H]2CC[C@@]3(C)[C@@H](CC[C@@]34CCC(=O)O4)[C@H]12",
    "qualitativeLabel": "1 (yes)"
  },
  {
    "compound": "COC(=O)CSc1cc(N=c2sc(=O)n3n2CCCC3)c(F)cc1Cl",
    "qualitativeLabel": "0 (no)"
  },
  {
    "compound": "COC(=O)c1ccc(I)cc1S(=O)(=O)NC(=O)Nc1nc(C)nc(OC)n1",
    "qualitativeLabel": "0 (no)"
  },
  {
    "compound": "C[C@]12CC[C@@H]3c4ccc(O)cc4C[C@@H](CCCCCCCCCS(=O)CCCC(F)(F)C(F)(F)F)[C@H]3[C@@H]1CC[C@@H]2O (stereo partly specified)",
    "qualitativeLabel": "0 (no)"
  }
]

###

- protocolText: APR_HepG2_CellCycleArrest_24hr: Apredica 24-hour HepG2 Assay for Cell Cycle Arrest (AID 2282905);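 also: cell cycle arrest scored as ratio of 2N to 4N nuclear DNA content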
- particulars: imaging, actives raise or lower the signal
Active and inactive are the calls of the source. The calls were made as follows: active = hit-call score of the fitted dose curve at least 0.9, where 1 is the maximum; inactive = score below 0.9.
Classes used: true (1) = active, false (0) = inactive

[
  {
    "compound": "CCCOC(=O)c1ccc(C(=O)OCCC)nc1",
    "qualitativeLabel": "false (0)"
  },
  {
    "compound": "S=C([S-])NCCNC(=S)[S-].[Mn+2]",
    "qualitativeLabel": "false (0)"
  },
  {
    "compound": "N#CSCSc1nc2ccccc2s1",
    "qualitativeLabel": "true (1)"
  },
  {
    "compound": "CCCN(CCC)C(=O)SCC",
    "qualitativeLabel": "false (0)"
  },
  {
    "compound": "CCC(C)OC(=O)N1CCCCC1CCO (configuration not stated)",
    "qualitativeLabel": "false (0)"
  },
  {
    "compound": "CN(C)C(=O)Nc1ccc(Cl)c(Cl)c1",
    "qualitativeLabel": "false (0)"
  },
  {
    "compound": "OB(O)O",
    "qualitativeLabel": "false (0)"
  },
  {
    "compound": "CC(=O)S[C@@H]1CC2=CC(=O)CC[C@]2(C)[C@H]2CC[C@@]3(C)[C@@H](CC[C@@]34CCC(=O)O4)[C@H]12",
    "qualitativeLabel": "true (1)"
  },
  {
    "compound": "O=C(O)C1(C(=O)Nc2ccc(Cl)cc2Cl)CC1",
    "qualitativeLabel": "false (0)"
  },
  {
    "compound": "Cc1nn(C)c(Oc2ccccc2)c1C=NOCc1ccc(C(=O)OC(C)(C)C)cc1",
    "qualitativeLabel": "true (1)"
  },
  {
    "compound": "C[C@]12C[C@H](O)[C@H]3[C@@H](CCC4=CC(=O)CC[C@@]43C)[C@@H]1CC[C@@H]2C(=O)CO",
    "qualitativeLabel": "true (1)"
  },
  {
    "compound": "C=CCOC(Cn1ccnc1)c1ccc(Cl)cc1Cl (configuration not stated)",
    "qualitativeLabel": "false (0)"
  }
]

Just for reference, PubChem BioAssay (EPA / NIEHS) is where these values come from.
